Can you tell me Phytotoxic activity ranking for the items I'm about to list?
Test system: bentgrass (Agrostis stolonifera)
Assay: initial phytotoxicity bioassay, bentgrass
Assay type: in vivo
Conditions: 0.001 mg/mL, visual scale 0 to 5, 0 = no effect, 5 = no growth
Answer with a number only.

Please look at this molecule and report its Phytotoxic activity ranking: C[C@]12CC[C@@H](O)[C@]3(C)C(=O)O[C@@H](C13)[C@H]1O[C@]13COC(=O)C=C32 (stereo partly drawn)
0

Please look at this molecule and report its Phytotoxic activity ranking: C[C@@]12CC[C@@H](O)[C@]3(C)C4=CC(=O)OCC4=C[C@@H](OC1=O)C23 (stereo partly drawn)
0

Please look at this molecule and report its Phytotoxic activity ranking: C[C@@]12CC[C@@H](O)[C@]3(C)C4=CC(=O)OC[C@]45O[C@@H]5[C@@H](OC1=O)C23 (stereo partly drawn)
0

Please look at this molecule and report its Phytotoxic activity ranking: C[C@@]12CC[C@@H](O)[C@]3(C)C(=O)O[C@H](C=C4COC(=O)C=C41)C23 (stereo partly drawn)
0

Please look at this molecule and report its Phytotoxic activity ranking: C[C@@]12C[C@@H](O)C[C@]3(C)C4=CC(=O)OC[C@]45O[C@@H]5[C@@H](OC1=O)C23 (stereo partly drawn)
0

Please look at this molecule and report its Phytotoxic activity ranking: C[C@]12C=CC[C@]3(C)C(=O)O[C@@H](C13)[C@H]1O[C@]13COC(=O)C=C32 (stereo partly drawn)
1

Please look at this molecule and report its Phytotoxic activity ranking: C[C@@]12CCC[C@]3(C)C4=CC(=O)OCC4=C[C@@H](OC1=O)C23 (stereo partly drawn)
0

Please look at this molecule and report its Phytotoxic activity ranking: C[C@@]12C[C@@H](O)C[C@]3(C)C4=CC(=O)OCC4=C[C@@H](OC1=O)C23 (stereo partly drawn)
2

Please look at this molecule and report its Phytotoxic activity ranking: C[C@@]12C=CC[C@]3(C)C(=O)O[C@H](C=C4COC(=O)C=C41)C23 (stereo partly drawn)
0

Please look at this molecule and report its Phytotoxic activity ranking: C=C1C(O)CC2[C@](C)(CCC[C@]2(C)C(=O)O)C1CC(=O)O (stereo partly drawn)
0

Please look at this molecule and report its Phytotoxic activity ranking: `C[C@]12CCC[C@](C)(C(=O)O)[C@@H]1C=C[C@]1(O)COC(=O)C[C@H]21`
0

Please look at this molecule and report its Phytotoxic activity ranking: C[C@@]12C=C[C@H](O)[C@]3(C)C(=O)O[C@H](C=C4COC(=O)C=C41)C23 (stereo partly drawn)
0

---

Can you tell me IC50 at 48 h for the items I'm about to list?
Assay: cytotoxicity to SK-MEL cells
Assay type: cell-based
Settings: human

Please look at this molecule and report its IC50 at 48 h: C[C@@]12CC[C@@H](O)[C@]3(C)C(=O)O[C@H](C=C4COC(=O)C=C41)C23 (some centres unmarked)
> 10 µg/mL

Please look at this molecule and report its IC50 at 48 h: C[C@]12CC[C@@H](O)[C@]3(C)C(=O)O[C@@H](C13)[C@H]1O[C@]13COC(=O)C=C32 (some centres unmarked)
> 10 µg/mL

---

Assay: cytotoxicity to KB cells
Format: cell-based
Conditions: human, KB cells (oral epidermal carcinoma)
observed_property: IC50 at 48 h

Please look at this molecule and report its IC50 at 48 h: C=C1C(O)CC2[C@](C)(CCC[C@]2(C)C(=O)O)C1CC(=O)O (some centres unmarked) [Compound 13]
> 10 µg/mL

Please look at this molecule and report its IC50 at 48 h: C[C@@]12CC[C@@H](O)[C@]3(C)C4=CC(=O)OC[C@]45O[C@@H]5[C@@H](OC1=O)C23 (some centres unmarked) [Compound 5]
> 10 µg/mL

---

Assay: cytotoxicity to LLC-PK11 cells
Type: cell-based
Settings: pig, LLC-PK11 cells (kidney epithelial)
Can you tell me IC50 at 48 h for the items I'm about to list?

Please look at this compound and report its IC50 at 48 h: C=C1C(O)CC2[C@](C)(CCC[C@]2(C)C(=O)O)C1CC(=O)O (some centres unmarked)
> 10 µg/mL

Please look at this compound and report its IC50 at 48 h: C[C@@]12CC[C@@H](O)[C@]3(C)C4=CC(=O)OC[C@]45O[C@@H]5[C@@H](OC1=O)C23 (some centres unmarked)
> 10 µg/mL

---

Test system: lettuce (Lactuca sativa cv. L. Iceberg)
Experiment: initial phytotoxicity bioassay, lettuce
Format: in vivo
Details: 0.1 mg/mL, visual scale 0 to 5, 0 = no effect, 5 = no growth
observed_property: Phytotoxic activity ranking
Answer with a number only.

Please look at this compound and report its Phytotoxic activity ranking: C[C@@]12CC[C@@H](O)[C@]3(C)C4=CC(=O)OCC4=C[C@@H](OC1=O)C23 (stereo partly shown)
5

Please look at this compound and report its Phytotoxic activity ranking: C[C@@]12C=CC[C@]3(C)C(=O)O[C@H](C=C4COC(=O)C=C41)C23 (stereo partly shown)
5

Please look at this compound and report its Phytotoxic activity ranking: C[C@]12C=CC[C@]3(C)C(=O)O[C@@H](C13)[C@H]1O[C@]13COC(=O)C=C32 (stereo partly shown)
5

Please look at this compound and report its Phytotoxic activity ranking: C[C@@]12C=C[C@H](O)[C@]3(C)C(=O)O[C@H](C=C4COC(=O)C=C41)C23 (stereo partly shown)
5

Please look at this compound and report its Phytotoxic activity ranking: C[C@@]12C[C@@H](O)C[C@]3(C)C4=CC(=O)OC[C@]45O[C@@H]5[C@@H](OC1=O)C23 (stereo partly shown)
5

Please look at this compound and report its Phytotoxic activity ranking: `C[C@]12CCC[C@](C)(C(=O)O)[C@@H]1C=C[C@]1(O)COC(=O)C[C@H]21`
4

Please look at this compound and report its Phytotoxic activity ranking: C[C@]12C=C[C@H](O)[C@]3(C)C(=O)O[C@@H](C13)[C@H]1O[C@]13COC(=O)C=C32 (stereo partly shown)
5

Please look at this compound and report its Phytotoxic activity ranking: C=C1C(O)CC2[C@](C)(CCC[C@]2(C)C(=O)O)C1CC(=O)O (stereo partly shown)
0

Please look at this compound and report its Phytotoxic activity ranking: C[C@@]12CCC[C@]3(C)C4=CC(=O)OCC4=C[C@@H](OC1=O)C23 (stereo partly shown)
5

Please look at this compound and report its Phytotoxic activity ranking: C[C@@]12CC[C@@H](O)[C@]3(C)C(=O)O[C@H](C=C4COC(=O)C=C41)C23 (stereo partly shown)
2

Please look at this compound and report its Phytotoxic activity ranking: C[C@@]12C[C@@H](O)C[C@]3(C)C4=CC(=O)OCC4=C[C@@H](OC1=O)C23 (stereo partly shown)
5

Please look at this compound and report its Phytotoxic activity ranking: C[C@@]12CC[C@@H](O)[C@]3(C)C4=CC(=O)OC[C@]45O[C@@H]5[C@@H](OC1=O)C23 (stereo partly shown)
5

Please look at this compound and report its Phytotoxic activity ranking: C[C@]12CC[C@@H](O)[C@]3(C)C(=O)O[C@@H](C13)[C@H]1O[C@]13COC(=O)C=C32 (stereo partly shown)
4

---

Experiment: cytotoxicity to BT-549 cells
Assay type: cell-based
Details: human
observed_property: IC50 at 48 h

Please look at this compound and report its IC50 at 48 h: C[C@@]12CC[C@@H](O)[C@]3(C)C(=O)O[C@H](C=C4COC(=O)C=C41)C23 (some centres unmarked) [Compound 8]
> 10 µg/mL

Please look at this compound and report its IC50 at 48 h: C[C@]12CC[C@@H](O)[C@]3(C)C(=O)O[C@@H](C13)[C@H]1O[C@]13COC(=O)C=C32 (some centres unmarked) [Compound 3]
> 10 µg/mL

---

Can you tell me Phytotoxic activity ranking for the items I'm about to list?
Test system: lettuce (Lactuca sativa cv. L. Iceberg)
Experiment: initial phytotoxicity bioassay, lettuce
Assay type: in vivo
Conditions: 0.01 mg/mL, visual scale 0 to 5, 0 = no effect, 5 = no growth
Answer with a number only.

Please look at this compound and report its Phytotoxic activity ranking: C[C@@]12CCC[C@]3(C)C4=CC(=O)OCC4=C[C@@H](OC1=O)C23 (stereo partly drawn) [Compound 11]
2

Please look at this compound and report its Phytotoxic activity ranking: C[C@@]12CC[C@@H](O)[C@]3(C)C4=CC(=O)OCC4=C[C@@H](OC1=O)C23 (stereo partly drawn) [Compound 10]
1

Please look at this compound and report its Phytotoxic activity ranking: C[C@@]12C=C[C@H](O)[C@]3(C)C(=O)O[C@H](C=C4COC(=O)C=C41)C23 (stereo partly drawn) [Compound 6]
5

Please look at this compound and report its Phytotoxic activity ranking: C[C@@]12C=CC[C@]3(C)C(=O)O[C@H](C=C4COC(=O)C=C41)C23 (stereo partly drawn) [Compound 7]
1

Please look at this compound and report its Phytotoxic activity ranking: C[C@@]12CC[C@@H](O)[C@]3(C)C4=CC(=O)OC[C@]45O[C@@H]5[C@@H](OC1=O)C23 (stereo partly drawn) [Compound 5]
4

Please look at this compound and report its Phytotoxic activity ranking: C[C@]12C=CC[C@]3(C)C(=O)O[C@@H](C13)[C@H]1O[C@]13COC(=O)C=C32 (stereo partly drawn) [Compound 2]
3
